- Target: OR5P3 (Homo sapiens)
- Sequence (whole entry): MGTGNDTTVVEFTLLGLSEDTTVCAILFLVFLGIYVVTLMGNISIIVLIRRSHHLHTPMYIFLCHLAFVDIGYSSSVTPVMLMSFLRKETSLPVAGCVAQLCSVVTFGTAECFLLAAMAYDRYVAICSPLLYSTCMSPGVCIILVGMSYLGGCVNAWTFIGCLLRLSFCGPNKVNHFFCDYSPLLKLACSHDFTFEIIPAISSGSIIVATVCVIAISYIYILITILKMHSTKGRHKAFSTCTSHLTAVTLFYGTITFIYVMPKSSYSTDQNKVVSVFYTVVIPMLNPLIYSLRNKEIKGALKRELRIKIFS
- Study Conditions: stereoisomer not certain
Select the correct class. Options are 1.0 (active), 0.0 (inactive) and nothing else.

Below, 2 compounds whose answers are already recorded.
CC(CO)CS (configuration not stated)    0.0
CCCCCCCC(C)=O    0.0

Prompt: Record request — test call for CC1CCCCCCCCCCCCC(=O)C1 (configuration not stated)
Completion: 0.0

Prompt: Record request — test call for COc1cc(C(=O)O)ccc1O
Completion: 0.0

Prompt: Record request — test call for CCC(S)C(C)CO (configuration not stated)
Completion: 0.0

Prompt: Record request — test call for CC12CCC(CC1=O)C2(C)C (configuration not stated)
Completion: 0.0

Prompt: Record request — test call for C=CCOC(=O)CCCCCC
Completion: 0.0

====

- Target: UniProt Q7TQV4
- Sequence (Q7TQV4 as listed by the source): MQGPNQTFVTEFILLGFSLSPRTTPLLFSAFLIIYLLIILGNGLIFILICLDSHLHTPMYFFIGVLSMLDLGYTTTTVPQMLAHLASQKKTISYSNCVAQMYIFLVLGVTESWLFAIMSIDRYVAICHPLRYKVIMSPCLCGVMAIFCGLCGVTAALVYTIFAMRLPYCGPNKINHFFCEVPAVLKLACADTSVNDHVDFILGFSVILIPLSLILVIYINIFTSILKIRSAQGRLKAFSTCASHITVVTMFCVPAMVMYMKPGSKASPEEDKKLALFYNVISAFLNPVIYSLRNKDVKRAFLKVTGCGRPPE
- Study Conditions: stereoisomer not certain
Quantity: odorant receptor agonist call

In the examples that follow, each entry is paired with its recorded odorant receptor agonist call.
CC12CCC(CC1=O)C2(C)C (stereo not drawn)    inactive
CCCCCC(=O)CC    inactive
CC(C)=CCCC(C)CCO (stereo not drawn)    inactive
C=CCOC(=O)CCCCCC    inactive
C=C(C)C1CCC(C)C(=O)C1 (stereo not drawn)    inactive

Prompt: Please give the documented odorant receptor agonist call of c1ccccc1
Completion: inactive

Prompt: Please give the documented odorant receptor agonist call of CCCCCCCC(=O)[O-].[H+]
Completion: inactive

Prompt: Please give the documented odorant receptor agonist call of CCCCC(C)=O
Completion: inactive

Prompt: Please give the documented odorant receptor agonist call of CCCCCCOC(C)=O
Completion: inactive

Prompt: Please give the documented odorant receptor agonist call of CCCCCC=O
Completion: inactive

====

- Target: OR5B17 (Homo sapiens) (UniProt Q8NGF7)
- Sequence (Q8NGF7 whole entry): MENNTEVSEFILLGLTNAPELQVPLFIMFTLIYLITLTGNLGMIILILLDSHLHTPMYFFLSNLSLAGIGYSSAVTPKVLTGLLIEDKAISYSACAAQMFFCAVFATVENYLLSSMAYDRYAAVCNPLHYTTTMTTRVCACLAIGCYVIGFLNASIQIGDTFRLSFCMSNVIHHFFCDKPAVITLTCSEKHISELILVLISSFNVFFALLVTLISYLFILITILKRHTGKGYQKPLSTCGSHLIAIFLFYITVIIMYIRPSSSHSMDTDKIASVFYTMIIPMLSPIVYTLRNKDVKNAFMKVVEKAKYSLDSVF
- Study Conditions: stereoisomer not certain
Select the correct class. Options are T for active, F for inactive and nothing else.

Below, 5 compounds whose answers are already recorded.
CC1CC(C)(c2ccccc2)CO1 (stereo unspecified)    F
CCCCCC(=O)C(C)C(C)=O (stereo unspecified)    F
CCC1OC(=O)C(O)=C1C (stereo unspecified)    F
CC1=C(O)C(=O)C(C)O1 (stereo unspecified)    F
CCCC(S)CCOC(C)=O (stereo unspecified)    F

Prompt: Record request — test call for CCc1ccc(CC(C)(C)C=O)cc1
Completion: T

Prompt: Record request — test call for CC1=NC(C)C(C)S1 (stereo unspecified)
Completion: F

Prompt: Record request — test call for Cc1cnc(C)c(C)n1
Completion: F

Prompt: Record request — test call for Cc1ccc(C(C)C)cc1O
Completion: F

Prompt: Record request — test call for CC(=O)OCc1ccccc1
Completion: F

Prompt: Record request — test call for CC(C)=CCCC(C)=CCO
Completion: F

Prompt: Record request — test call for CCCCCC1C(=O)CCC1CC(=O)OC (stereo unspecified)
Completion: F

Prompt: Record request — test call for CCCC(C)C(=O)OCC (stereo unspecified)
Completion: F

Prompt: Record request — test call for CCC(S)C(C)CO (stereo unspecified)
Completion: F

Prompt: Record request — test call for COc1ccc(C)cc1
Completion: F

Prompt: Record request — test call for CC1=CCC2CC1C2(C)C (stereo unspecified)
Completion: F

Prompt: Record request — test call for CC(CC=O)c1ccc(C(C)(C)C)cc1 (stereo unspecified)
Completion: F

Prompt: Record request — test call for CC(C)CCCC(C)(C)O
Completion: F

Prompt: Record request — test call for C=CCOC(=O)COCCC(C)C
Completion: F

Prompt: Record request — test call for CCOC(=O)CC1(C)OCCO1
Completion: F

====

- Target: OR52M1 (Homo sapiens) (UniProt Q8NGK5)
- Sequence (Q8NGK5 whole entry): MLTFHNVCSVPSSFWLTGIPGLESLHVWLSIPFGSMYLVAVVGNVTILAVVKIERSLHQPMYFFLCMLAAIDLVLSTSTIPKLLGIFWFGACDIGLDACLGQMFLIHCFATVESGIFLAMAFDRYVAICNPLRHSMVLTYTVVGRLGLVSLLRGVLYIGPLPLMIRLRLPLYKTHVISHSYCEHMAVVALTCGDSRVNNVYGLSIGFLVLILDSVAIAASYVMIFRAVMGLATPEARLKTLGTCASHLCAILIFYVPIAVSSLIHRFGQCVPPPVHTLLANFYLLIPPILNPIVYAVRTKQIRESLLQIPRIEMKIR
- Study Conditions: stereoisomer not certain
Select the correct class. Options are active, inactive and nothing else.

Below, 3 compounds whose answers are already recorded.
Cc1cnc(C)c(C)n1    inactive
CCC1OC(C)=C(O)C1=O (stereo not given)    inactive
CCCCCC(S)C(C)CO (stereo not given)    inactive

Prompt: Record request — test call for CC1CCCCCCCCCCCCC(=O)C1 (stereo not given)
Completion: inactive

Prompt: Record request — test call for CC(CO)CS (stereo not given)
Completion: inactive

Prompt: Record request — test call for CCCCCC1CCCC(=O)O1 (stereo not given)
Completion: active

Prompt: Record request — test call for CCC1OC(=O)C(O)=C1C (stereo not given)
Completion: inactive

Prompt: Record request — test call for CC1=C(O)C(=O)C(C)O1 (stereo not given)
Completion: inactive

Prompt: Record request — test call for CCCCCCC=CCCC=O
Completion: inactive

Prompt: Record request — test call for CCC(S)C(C)CO (stereo not given)
Completion: inactive

====

- Target: UniProt A2AVB5
- Sequence (A2AVB5 as listed by the source): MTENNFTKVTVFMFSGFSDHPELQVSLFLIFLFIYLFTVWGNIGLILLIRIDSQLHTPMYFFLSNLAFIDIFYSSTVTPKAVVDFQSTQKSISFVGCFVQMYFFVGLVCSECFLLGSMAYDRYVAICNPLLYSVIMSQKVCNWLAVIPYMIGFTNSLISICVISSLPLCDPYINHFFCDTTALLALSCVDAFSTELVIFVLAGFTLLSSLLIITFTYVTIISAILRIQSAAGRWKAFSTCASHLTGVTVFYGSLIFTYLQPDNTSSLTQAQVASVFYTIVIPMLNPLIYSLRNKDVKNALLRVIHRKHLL
- Study Conditions: stereoisomer not certain
Select the correct class. Options are true (1) (active), false (0) (inactive) and nothing else.

Below, 2 molecules whose answers are already recorded.
CCCCOC(=O)C(C)OC(=O)CCC (stereo not given)    false (0)
CCCCCCCCCC(=O)[O-].[H+]    false (0)

Prompt: Record request — test call for CCCCCCCCCO
Completion: false (0)

Prompt: Record request — test call for CCCCCCCCO
Completion: false (0)

Prompt: Record request — test call for CC(=O)OCC=C(C)C
Completion: false (0)

Prompt: Record request — test call for CCCCCCCC(=O)[O-].[H+]
Completion: false (0)

Prompt: Record request — test call for CCCCCCCCCS
Completion: false (0)

====

- Target: UniProt E9Q9Z6
- Sequence (E9Q9Z6 as listed by the source): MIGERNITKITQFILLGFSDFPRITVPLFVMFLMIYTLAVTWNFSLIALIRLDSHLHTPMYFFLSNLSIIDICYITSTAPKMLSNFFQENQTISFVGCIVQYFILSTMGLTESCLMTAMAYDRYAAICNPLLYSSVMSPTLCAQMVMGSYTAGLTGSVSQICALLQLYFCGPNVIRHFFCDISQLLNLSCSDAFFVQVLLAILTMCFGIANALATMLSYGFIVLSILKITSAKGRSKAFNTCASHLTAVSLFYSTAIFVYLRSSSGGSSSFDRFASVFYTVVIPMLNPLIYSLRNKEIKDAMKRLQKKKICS
- Study Conditions: stereoisomer not certain
Select the correct class. Options are yes = active, no = inactive and nothing else.

Below, 3 compounds whose answers are already recorded.
CC1C(C)(C)C2=C(C(=O)CCC2)C1(C)C (configuration not stated)    no
CC(=O)c1c(C)c([N+](=O)[O-])c(C(C)(C)C)c([N+](=O)[O-])c1C    yes
CC1CC=CCCCCCCCCCC(=O)C1 (configuration not stated)    yes

Prompt: Record request — test call for O=C1C=CCCCCCCCCCCCCO1
Completion: yes

Prompt: Record request — test call for O=C1CCCCCCC=CCCCCCCC1
Completion: yes

Prompt: Record request — test call for O=C1CCCCCCCCC1
Completion: no

Prompt: Record request — test call for CC1CCCCCCCCCCCC(=O)C1 (configuration not stated)
Completion: yes

====

- Target: UniProt Q8VF05
- Sequence (whole entry): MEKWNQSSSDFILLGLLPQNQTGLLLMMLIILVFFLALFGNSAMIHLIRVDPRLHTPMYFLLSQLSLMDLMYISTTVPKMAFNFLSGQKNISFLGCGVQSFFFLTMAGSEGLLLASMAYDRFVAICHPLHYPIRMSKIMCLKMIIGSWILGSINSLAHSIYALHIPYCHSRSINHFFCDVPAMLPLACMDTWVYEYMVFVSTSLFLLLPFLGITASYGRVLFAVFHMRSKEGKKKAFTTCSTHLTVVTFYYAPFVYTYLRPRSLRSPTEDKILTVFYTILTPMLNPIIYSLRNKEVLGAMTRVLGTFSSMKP
- Study Conditions: stereoisomer not certain
Select the correct class. Options are active, inactive and nothing else.

CCCCCCCC(C)=O    inactive

Prompt: Record request — test call for CCCCCCCO
Completion: active

Prompt: Record request — test call for CC(=O)OCC=C(C)C
Completion: active

Prompt: Record request — test call for COc1cc(C(=O)O)ccc1O
Completion: inactive

Prompt: Record request — test call for CCCC(C)=O
Completion: active

Prompt: Record request — test call for CCCC(=O)C(C)=O
Completion: active

Prompt: Record request — test call for CCCCCCOC(C)=O
Completion: inactive

Prompt: Record request — test call for CCCCCCC(=O)[O-].[H+]
Completion: inactive

====

- Target: UniProt Q9EPN9
- Sequence (Q9EPN9 as listed by the source): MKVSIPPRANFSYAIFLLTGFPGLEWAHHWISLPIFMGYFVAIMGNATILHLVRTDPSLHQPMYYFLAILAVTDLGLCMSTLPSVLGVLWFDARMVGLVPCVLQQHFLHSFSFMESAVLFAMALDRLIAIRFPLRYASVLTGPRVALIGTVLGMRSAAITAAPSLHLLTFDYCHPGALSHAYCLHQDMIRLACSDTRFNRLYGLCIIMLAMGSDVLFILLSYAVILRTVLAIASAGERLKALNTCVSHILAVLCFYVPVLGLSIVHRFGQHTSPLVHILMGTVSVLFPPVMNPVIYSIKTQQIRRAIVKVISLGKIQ
- Study Conditions: stereoisomer not certain
Select the correct class. Options are active, inactive and nothing else.

CCCCCCCO    inactive
CCCCCCC(C)=O    inactive
C=CCOC(=O)CCCCCC    inactive
CC(=O)OCC=C(C)C    inactive
O=C1CCOc2ccccc21    inactive
CCC(=O)O    inactive

Prompt: Record request — test call for CCCCCC(=O)CC
Completion: inactive

Prompt: Record request — test call for CCCCCC=O
Completion: inactive

Prompt: Record request — test call for CCCCC(C)=O
Completion: inactive

Prompt: Record request — test call for CCOC(=O)C(C)C
Completion: inactive

Prompt: Record request — test call for CCCCCCCC(C)=O
Completion: inactive
